measured-on: UniProt:P18871
Sequence (P18871 whole entry): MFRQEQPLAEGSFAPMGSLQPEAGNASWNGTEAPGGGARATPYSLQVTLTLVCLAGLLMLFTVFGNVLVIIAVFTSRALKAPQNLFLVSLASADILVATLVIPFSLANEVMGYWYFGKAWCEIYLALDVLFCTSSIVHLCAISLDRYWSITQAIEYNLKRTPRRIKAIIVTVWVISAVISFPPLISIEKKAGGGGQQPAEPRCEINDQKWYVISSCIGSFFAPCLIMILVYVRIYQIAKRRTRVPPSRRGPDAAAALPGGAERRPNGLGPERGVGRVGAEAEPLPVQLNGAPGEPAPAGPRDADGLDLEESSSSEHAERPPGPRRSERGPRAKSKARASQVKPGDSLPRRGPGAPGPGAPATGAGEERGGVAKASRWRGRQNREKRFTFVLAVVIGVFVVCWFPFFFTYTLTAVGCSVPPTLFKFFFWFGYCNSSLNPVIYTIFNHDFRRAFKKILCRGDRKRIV
observed-property: Ki (µM)

                               entry_smiles  numeric_result
0  COc1cc2nc(N3CCN(C(=O)c4ccco4)CC3)nc(N)c2cc1OC             4.1

Recorded values, source ChEMBL document CHEMBL1128530.
